Experimental protocol: Acute toxic effect of platinum complex on normal mice (LD50)
Type: in vivo, Kunming mice
Condition parameters: both sexes, Kunming, mouse, in vivo; single intravenous administration in 5% glucose, 14 days observation, Bliss method
Exercise: state measured LD50 at 14 days for each of the compounds provided.
Answers are plain numbers, in µmol/kg.

[NH2][Pt]1([NH2])[O]C(=O)C(CCCN2CCCCC2)C(=O)[O]1 [compound 29] ... 784
[NH2][Pt]1([NH2])[O]C(=O)C(CCCN2CCCC2)C(=O)[O]1 [compound 30] ... 802
CCN(CC)CCC1C(=O)[O][Pt]([NH2])([NH2])[O]C1=O [compound 5] ... 853
NCCCC1C(=O)[O][Pt]([NH2])([NH2])[O]C1=O [compound 4] ... 802

Okay, now this compound:
Input: Request the reported LD50 at 14 days associated with CNCCC1C(=O)[O][Pt]([NH2])([NH2])[O]C1=O [compound 1]
Output: 722

---

Experimental protocol: Acute toxic effect of platinum complex on normal mice (LD50)
Format: in vivo, Kunming mice
Condition parameters: both sexes, Kunming, mouse, in vivo; single intravenous administration in 5% glucose, 14 days observation, Bliss method
Value kind: LD50 at 14 days

Example results:
CCN(CC)CCCC1C(=O)[O][Pt]([NH2])([NH2])[O]C1=O ... 749 µmol/kg
CN(C)CCC1C(=O)[O][Pt]([NH2])([NH2])[O]C1=O ... 791 µmol/kg

Okay, now this compound:
Input: Request the reported LD50 at 14 days associated with `CN(C)CCCC1C(=O)[O][Pt]([NH2])([NH2])[O]C1=O`
Output: 824 µmol/kg

---

Experimental protocol: Solubility in water
Condition parameters: water
Value kind: solubility (mg/mL)
Give bare numbers, in mg/mL.

CN(C)CCCC1C(=O)[O][Pt]([NH2])([NH2])[O]C1=O ... 164

For each of the compounds below, note its solubility.
1. CCN(CC)CCCC1C(=O)[O][Pt]([NH2])([NH2])[O]C1=O
2. CCN(CC)CCC1C(=O)[O][Pt]([NH2])([NH2])[O]C1=O
3. NCCCC1C(=O)[O][Pt]([NH2])([NH2])[O]C1=O
4. CNCCC1C(=O)[O][Pt]([NH2])([NH2])[O]C1=O
5. CN(C)CCC1C(=O)[O][Pt]([NH2])([NH2])[O]C1=O
6. [NH2][Pt]1([NH2])[O]C(=O)C(CCCN2CCCCC2)C(=O)[O]1
7. [NH2][Pt]1([NH2])[O]C(=O)C(CCCN2CCCC2)C(=O)[O]1

Output:
1. 165
2. 187
3. 176
4. 221
5. 198
6. 159
7. 160

---

Test system: normal mice
Experimental protocol: Acute toxic effect of platinum complex on normal mice (LD50)
Type: in vivo, Kunming mice
Condition parameters: single intravenous administration in 5% glucose, 14 days observation, Bliss method
Label key: Yes means LD50 value under 0.7 mmol/kg; No means LD50 value of 0.7 mmol/kg or more.

CCCN(CCC)CCC1C(=O)[O][Pt]2([NH]C3CCCCC3[NH]2)[O]C1=O.O=P(O)(O)O (stereo not drawn) ... Yes
CCN(CC)CCCC1C(=O)[O][Pt]2([NH]C3CCCCC3[NH]2)[O]C1=O.O=P(O)(O)O (stereo not drawn) ... No

Input: Is it true that LD50 value reported for CN(C)CCC1C(=O)[O][Pt]2([NH]C3CCCCC3[NH]2)[O]C1=O (stereo not drawn) is less than 0.7 mmol/kg?
Output: Yes

Input: Is it true that LD50 value reported for CCN(CC)CCCC1C(=O)[O][Pt]2([NH]C3CC3[NH]2)[O]C1=O.O=P(O)(O)O (stereo not drawn) is less than 0.7 mmol/kg?
Output: No

Input: Is it true that LD50 value reported for CCN(CC)CCC1C(=O)[O][Pt]2([NH]C3CCC(CC3)[NH]2)[O]C1=O.O=P(O)(O)O (stereo not drawn) is less than 0.7 mmol/kg?
Output: No
